- System: SEM cells
- PROTOCOL DESCRIPTION: cell viability relative to DMSO control; higher = less cytotoxic
- EXPERIMENTAL CONTEXT: RPMI 5 mM glucose + 10% FBS; 48 h; 0.000781 µM
MEASUREMENT NAME: cell viability (%)
Write the answer as a number in %, unit excluded.

Data request, read-out cell viability, for "CO[C@@H]1[C@H](N(C)C(=O)c2ccccc2)C[C@H]2O[C@]1(C)n1c3ccccc3c3c4c(c5c6ccccc6n2c5c31)C(=O)NC4" 87

Data request, read-out cell viability, for CCOP(=O)(OCC)C(C)NC(=O)N(CCCl)N=O (stereo unspecified) 90.7

Data request, read-out cell viability, for "Cl.Cl.Fc1ccc(C(OCCN2CCN(CCCc3ccccc3)CC2)c2ccc(F)cc2)cc1" 111

Data request, read-out cell viability, for Cn1c(=O)c2c(ncn2CC(O)CO)n(C)c1=O (stereo unspecified) 106

Data request, read-out cell viability, for "Cc1ccc(F)c(NC(=O)Nc2ccc(-c3cccc4[nH]nc(N)c34)cc2)c1" 73.4

Data request, read-out cell viability, for C[C@H]1CCC/C=C/C2C[C@H](O)C[C@H]2[C@H](O)/C=C/C(=O)O1 (stereo partly specified) 11.4

Data request, read-out cell viability, for "CN[C@@H](C)C(=O)N[C@H]1CCCC[C@H]2CC[C@@H](C(=O)N[C@@H](c3ccccc3)c3cn(CCCCc4ccc(CCCCn5cc([C@@H](NC(=O)[C@@H]6CC[C@@H]7CCCC[C@H](NC(=O)[C@H](C)NC)C(=O)N76)c6ccccc6)nn5)cc4)nn3)N2C1=O" 90.3

Data request, read-out cell viability, for "Cc1cnc(Nc2ccc(OCCN3CCCC3)cc2)nc1Nc1cccc([S+](=O)([O-])NC(C)(C)C)c1" 88.9

Data request, read-out cell viability, for "CN(C)[C@H]\1[C@@H]2[C@@H](O)[C@@H]\3C(=C)C4=C(C(=CC=C4)O)C(=O)C3=C(\O)[C@@]2(O)C(=O)\C(=C1O)C(N)=O" 104

Data request, read-out cell viability, for O=C(C1CCCCC1)N1CC(=O)N2CCc3ccccc3C2C1 (stereo unspecified) 99.9

Data request, read-out cell viability, for Cc1c(OCC(F)(F)F)ccnc1C[S+]([O-])c1nc2ccccc2[nH]1 (stereo unspecified) 116

Data request, read-out cell viability, for "CC(Oc1ccc(O)cc1)(P(=O)(O)O)P(=O)(O)O" 107

Data request, read-out cell viability, for CC(=O)SCC(Cc1ccccc1)C(=O)NCC(=O)OCc1ccccc1 (stereo unspecified) 84.9

Data request, read-out cell viability, for "CC(C)(O)CNc1nc(Nc2ccnc(C(F)(F)F)c2)nc(-c2cccc(C(F)(F)F)n2)n1" 99.5

Data request, read-out cell viability, for "CCCn1c(=O)c2[nH]c(-c3cnn(Cc4cccc(C(F)(F)F)c4)c3)nc2n(CC)c1=O" 95.8

Data request, read-out cell viability, for "C[C@@]12OC(=O)[C@@]1(NC(=O)[C@@H]2CCCl)[C@@H](O)[C@H]\3CCC\C=C3" 87.5

Each recorded value in this set is attributed to the supplement of paper PMC11451515.
